B1: ZNF449 (parent)
chain: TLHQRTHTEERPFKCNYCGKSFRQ

- Variants of: B1
- EXPERIMENT: protein stability index of a GFP-peptide fusion (GPS, HEK-293T) (PSI 1-6); higher = more stable;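 also: lentivirally expressed fusions sorted by FACS into six bins by GFP to DsRed ratio, PSI derived from sequencing read proportions per bin multiplied by bin number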
- RECORDED CONDITIONS: c terminus: a fixed tail appended
Here the recorded protein stability index is given for each entry.
Lab note: write the figure by itself, no unit.

protein stability index measured on `H7A` = 1.65

protein stability index measured on `G19H` = 2.92

protein stability index measured on `R11N` = 2.42

protein stability index measured on `C15N` = 3.41

protein stability index measured on `L2Y` = 2.64

protein stability index measured on `R11C` = 2.24

protein stability index measured on `T6P` = 1.76

Data provenance is the supplement of paper PMC10567573.
